# reported log10 of IC50; entries follow
Target: UniProt:P48736
Sequence (P48736 whole entry): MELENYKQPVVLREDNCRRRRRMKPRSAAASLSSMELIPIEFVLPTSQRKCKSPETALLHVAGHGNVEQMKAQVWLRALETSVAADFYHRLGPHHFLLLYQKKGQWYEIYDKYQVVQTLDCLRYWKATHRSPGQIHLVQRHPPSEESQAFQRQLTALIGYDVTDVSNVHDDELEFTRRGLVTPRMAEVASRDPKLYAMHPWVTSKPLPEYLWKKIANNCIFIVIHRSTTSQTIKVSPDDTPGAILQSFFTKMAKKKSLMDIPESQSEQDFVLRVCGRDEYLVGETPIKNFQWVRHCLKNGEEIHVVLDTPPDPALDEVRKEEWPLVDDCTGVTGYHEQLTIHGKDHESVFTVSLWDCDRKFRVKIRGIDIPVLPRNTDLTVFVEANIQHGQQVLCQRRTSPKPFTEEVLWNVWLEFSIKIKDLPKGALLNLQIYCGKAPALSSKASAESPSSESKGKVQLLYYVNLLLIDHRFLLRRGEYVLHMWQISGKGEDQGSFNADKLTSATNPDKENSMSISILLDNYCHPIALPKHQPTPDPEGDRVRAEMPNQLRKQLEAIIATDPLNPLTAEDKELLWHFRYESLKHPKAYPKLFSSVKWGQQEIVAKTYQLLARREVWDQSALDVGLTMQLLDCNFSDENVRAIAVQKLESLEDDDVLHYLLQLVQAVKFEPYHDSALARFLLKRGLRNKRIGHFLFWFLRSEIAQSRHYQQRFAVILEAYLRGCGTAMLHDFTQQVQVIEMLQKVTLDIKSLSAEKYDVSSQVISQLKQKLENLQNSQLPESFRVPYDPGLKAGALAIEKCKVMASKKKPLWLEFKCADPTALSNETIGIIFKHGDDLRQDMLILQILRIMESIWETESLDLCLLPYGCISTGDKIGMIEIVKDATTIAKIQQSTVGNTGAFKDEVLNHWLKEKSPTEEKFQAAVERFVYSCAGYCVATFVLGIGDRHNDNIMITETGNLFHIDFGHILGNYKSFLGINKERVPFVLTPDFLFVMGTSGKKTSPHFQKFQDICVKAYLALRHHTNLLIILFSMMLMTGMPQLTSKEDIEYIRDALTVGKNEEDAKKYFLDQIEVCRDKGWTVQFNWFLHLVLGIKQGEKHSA
Assay: Cellular U937 AKT assay (Assay K)
Type: cell-based
Conditions: AKT phosphorylation in U937 monocyte cells stimulated with 10 ng/ml MIP1α; read-out: Assay K PI3Kγ IC50
Each number you see is log10 of IC50, and the unit inside the log is nM.

# annotated cases, reported log10 of IC50 shown
Cc1ccc(S(=O)(=O)N[C@H]2CC[C@H](O)CC2)cc1-c1cncc(-c2cccnc2)n1 [Example 11] = 2.33
Cc1ccc(S(=O)(=O)NCC2(C)COC2)cc1-c1cncc(-c2cn(C)nc2C)n1 [Example 4] = 1.73
Cc1ccc(S(=O)(=O)NCC(C)(C)CO)cc1-c1cncc(-c2cn(C)nc2C)n1 [Example 8] = 1.98
Cc1ncc(-c2cncc(-c3cc(S(=O)(=O)NCCCO)ccc3C)n2)s1 [Example 1] = 2.52
Cc1ccc(S(=O)(=O)NCCC(C)(C)O)cc1-c1cncc(-c2cnn(CCN3CCOCC3)c2)n1 [Example 9] = 2.78

Asked: Requested field: log10 of IC50. Item: Cc1ccc(S(=O)(=O)NCCC(C)(C)O)cc1-c1cncc(-c2cn(C)nc2C)n1 [Example 3]
Given back: 1.90

Asked: Requested field: log10 of IC50. Item: Cc1ccc(S(=O)(=O)NCCC(C)(C)O)cc1-c1cncc(-c2cn(CCN3CCOCC3)nc2C)n1 [Example 10]
Given back: 2.08

Asked: Requested field: log10 of IC50. Item: Cc1ncc(-c2cncc(-c3cc(S(=O)(=O)N[C@H]4CC[C@H](O)CC4)ccc3C)n2)s1 [Example 5]
Given back: 1.58

Asked: Requested field: log10 of IC50. Item: Cc1ccc(S(=O)(=O)NCC(C)(C)O)cc1-c1cncc(-c2cn(C)nc2C)n1 [Example 2]
Given back: 1.82

----------
Biological target: PI 3-kinase beta (Homo sapiens (Human), UniProt P42338)
Sequence (P42338 2-1070): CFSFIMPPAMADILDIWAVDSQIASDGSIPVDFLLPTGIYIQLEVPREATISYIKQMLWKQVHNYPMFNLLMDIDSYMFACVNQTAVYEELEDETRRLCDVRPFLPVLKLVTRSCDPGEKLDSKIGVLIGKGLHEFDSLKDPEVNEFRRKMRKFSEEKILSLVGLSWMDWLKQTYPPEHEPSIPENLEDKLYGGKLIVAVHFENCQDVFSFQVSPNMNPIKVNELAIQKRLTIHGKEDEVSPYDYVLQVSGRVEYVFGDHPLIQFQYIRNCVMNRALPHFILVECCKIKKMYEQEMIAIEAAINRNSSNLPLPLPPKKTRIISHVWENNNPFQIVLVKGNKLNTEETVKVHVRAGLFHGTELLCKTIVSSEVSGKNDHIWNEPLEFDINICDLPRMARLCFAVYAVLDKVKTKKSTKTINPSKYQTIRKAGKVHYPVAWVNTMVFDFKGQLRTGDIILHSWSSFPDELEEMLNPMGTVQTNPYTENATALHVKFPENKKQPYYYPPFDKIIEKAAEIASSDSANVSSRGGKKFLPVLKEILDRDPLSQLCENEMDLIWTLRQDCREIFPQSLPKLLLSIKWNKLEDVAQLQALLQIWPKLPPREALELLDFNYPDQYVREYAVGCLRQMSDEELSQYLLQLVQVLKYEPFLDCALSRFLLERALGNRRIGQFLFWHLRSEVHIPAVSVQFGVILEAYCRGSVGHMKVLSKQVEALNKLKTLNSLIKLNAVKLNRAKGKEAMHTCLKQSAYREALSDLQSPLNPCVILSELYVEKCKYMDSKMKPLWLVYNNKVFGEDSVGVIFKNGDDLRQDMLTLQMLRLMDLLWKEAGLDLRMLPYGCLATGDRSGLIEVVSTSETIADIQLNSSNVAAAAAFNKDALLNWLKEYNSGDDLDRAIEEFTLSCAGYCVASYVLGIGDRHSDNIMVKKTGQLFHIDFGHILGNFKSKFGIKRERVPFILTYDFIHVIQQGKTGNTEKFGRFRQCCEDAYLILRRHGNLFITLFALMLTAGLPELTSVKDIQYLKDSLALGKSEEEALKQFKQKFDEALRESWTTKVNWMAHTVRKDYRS
Assay: Kinase Glo Luminescent Kinase Assay (Assay B)
Type: biochemical
Settings: 1 μM ATP, read-out: Assay B PI3Kβ IC50
endpoint: log10(IC50) (log10 of the value in µM)
Each number you see is log10 of IC50, and the unit inside the log is µM.

# annotated cases, reported log10(IC50) shown
Cc1ncc(-c2cncc(-c3cc(S(=O)(=O)NCCCO)ccc3C)n2)s1 [Example 1] = 0.79
Cc1ccc(S(=O)(=O)NCC(C)(C)CO)cc1-c1cncc(-c2cn(C)nc2C)n1 [Example 8] = -0.17
Cc1ccc(S(=O)(=O)NCCC(C)(C)O)cc1-c1cncc(-c2cn(C)nc2C)n1 [Example 3] = 0.16
Cc1ccc(S(=O)(=O)NCC2(C)COC2)cc1-c1cncc(-c2cn(C)nc2C)n1 [Example 4] = -0.17
Cc1ccc(S(=O)(=O)N[C@H]2CC[C@H](O)CC2)cc1-c1cncc(-c2cccnc2)n1 [Example 11] = 0.59
Cc1ccc(S(=O)(=O)NCCC(C)(C)O)cc1-c1cncc(-c2cn(CCN3CCOCC3)nc2C)n1 [Example 10] = 0.93
Cc1ccc(S(=O)(=O)NCC(C)(C)O)cc1-c1cncc(-c2cn(C)nc2C)n1 [Example 2] = -0.15

Shift focus to the following entry.
Asked: Request body: readout log10(IC50), system PI 3-kinase beta (Homo sapiens (Human), UniProt P42338), query Cc1ncc(-c2cncc(-c3cc(S(=O)(=O)N[C@H]4CC[C@H](O)CC4)ccc3C)n2)s1 [Example 5] . Return the value.
Given back: 0.05

The measured values listed here are drawn from patent US9862711B2.
